I'd be grateful if you could share measured activation factor for these entries.
assay: compounds boosting diaphorase resazurin reduction – biochemical, uHTS, resorufin fluorescence, counter-screen for diaphorase-coupled primary assays, primary screen (AID 1229); conditions: Diaphorase/resazurin coupled assay, 16 min, at 20 µM, hits give high values, 1 = vehicle wells, 0 = NADH-free wells
Out of some 190,000 compounds screened, about 10 (0.005%) were called active. This is one part of a sample in which actives are shown more often than they occur.
Answers are plain numbers.

C=C(C)c1cccc(C(C)(C)NC(=O)NC2CCCC2)c1 ... 0.9
CSc1cc(C)[nH]c(=O)n1 ... 0.9
Cc1ccc(/C(N)=N/OC(=O)COc2ccc(Cl)c(C)c2)cc1 ... 0.9
Cc1ccc(S(=O)(=O)N(CC(=O)NN=C2CCN(C)CC2)c2ccc(F)cc2)cc1 ... 0.9
COC(=O)CCc1sc(Nc2ccc(Br)cc2)nc1-c1ccc(OC)cc1 ... 0.8
Cc1ccccc1CN1C[C@@H]2C[C@@H](c3ccc4nsnc4c3)N3CCC[C@@]23C1=O ... 0.8
CC1=C[C@H]2Cc3cc(C)cc(C)c3S(=O)(=O)[C@@H]2C=C1 ... 0.9
CCOC(=O)C(CC)/C(C)=N\NC(=O)c1cccc(C)c1 (stereo not given) ... 0.9

The following compounds each have a reported value; give each one's activation factor.
1. O=c1[nH]c2cccnc2n(CCNc2ncc(C(F)(F)F)cc2Cl)c1=O
2. Cc1ccccc1C(CC(=O)c1cccs1)C(C#N)C#N (stereo not given)

(A)
1: 0.8; 2: 0.9

Sourced from PubChem BioAssay AID1229
